- test-target: cAMP and cAMP-inhibited cGMP 3',5'-cyclic phosphodiesterase 10A (Homo sapiens)
Reported IC50 values are given for each entry in this list.
measurement-label: IC50 (nM)

[[record]]
compound = "Cn1ncc(Br)c1C(=O)Nc1ccn2nc(-c3ccccc3)nc2c1 [Roche-Dataset for PDE10A, Compound 371]"
reported_result = 35

[[record]]
compound = "Cc1ncc(C)n2nc(/C=C/c3nc(Br)cn3C3CC3)nc12 [Roche-Dataset for PDE10A, Compound 964]"
reported_result = 6650

[[record]]
compound = "O=C(Nc1ccn2nc(-c3ccccc3)nc2c1)c1cc(Cl)nc(Cl)c1 [Roche-Dataset for PDE10A, Compound 327]"
reported_result = 38

[[record]]
compound = "COCc1ccc(Nc2cncnc2)c(C(=O)Nc2cc(-c3ccccn3)nn2CCO)n1"
reported_result = 5.24

[[record]]
compound = "CC(=O)Nc1cccc(NC(=O)c2nc(C3CC3)cnc2Nc2cncnc2)c1 [Roche-Dataset for PDE10A, Compound 571]"
reported_result = 35

[[record]]
compound = "O=C(NCc1ccc(F)c(F)c1)c1nc(C2CC2)cnc1Nc1cncnc1 [Roche-Dataset for PDE10A, Compound 799]"
reported_result = 376

[[record]]
compound = "Cn1ncc(C(=O)N2CCC2)c1C(=O)N[C@@H]1CCn2cc(-c3ccc(F)cc3)nc2C1 [Roche-Dataset for PDE10A, Compound 261]"
reported_result = 4.54

[[record]]
compound = "O=C(N[C@H]1CCN(c2ccccn2)C1)c1nc(C2CC2)ccc1Nc1cncnc1 [Roche-Dataset for PDE10A, Compound 1052]"
reported_result = 367

[[record]]
compound = "CNC(=O)c1cc(C(C)C)ccc1NC(=O)c1nc(C2CC2)cnc1Nc1cncnc1"
reported_result = 1.15


----------
- test-target: cAMP and cAMP-inhibited cGMP 3',5'-cyclic phosphodiesterase 10A (Homo sapiens, UniProt Q9Y233)
pIC50: −log10 of the molar value.
The label depends only on pIC50: true if it is at least 7, false if it is smaller.

[[record]]
molecule = "Cc1nc2c(C)c(C)c(CCc3nc(-c4ccccc4)cn3C)nn2c1C [US10399985, Example 14]"
group = "true"

[[record]]
molecule = "COc1c(Cl)ccc2nc(CCc3nc(-c4ccccc4)cn3C)[nH]c(=O)c12 [Roche-Dataset for PDE10A, Compound 123]"
group = "true"

[[record]]
molecule = "Cc1ncc(C)n2nc(CCc3nc(-n4cccn4)nn3C)nc12 [Roche-Dataset for PDE10A, Compound 836]"
group = "false"

[[record]]
molecule = "Cn1ncc(C(=O)N2CCOCC2)c1C(=O)N[C@@H]1CCn2cc(-c3ccc(F)cc3)nc2C1 [Roche-Dataset for PDE10A, Compound 346]"
group = "false"

[[record]]
molecule = "CNC(=O)c1cc(OCCO)ccc1NC(=O)c1nc(C2CC2)cnc1Nc1cncnc1 [US8703768, 216]"
group = "true"

[[record]]
molecule = "Cc1ncc(C)n2nc(/C=C/c3nc(N4CCCC4)cn3C)nc12 [Roche-Dataset for PDE10A, Compound 596]"
group = "false"

[[record]]
molecule = "Cc1c(Cl)cc(Cl)c2nc(CCc3nccs3)nn12 [Roche-Dataset for PDE10A, Compound 996]"
group = "false"


----------
log10 IC50 values recorded for cAMP and cAMP-inhibited cGMP 3',5'-cyclic phosphodiesterase 10A (Homo sapiens)
measurement-label: log10 IC50 (log10 of the value in µM)

[[record]]
compound = "COC1CN(C(=O)c2cnn(C)c2C(=O)Nc2ccn3nc(-c4ccccc4)nc3c2)C1 [Roche-Dataset for PDE10A, Compound 139]"
measurement_label = "log10 IC50"
reported_result = -1.60

[[record]]
compound = "CNC(=O)c1cc2[nH]c(-c3ccccc3)nc2cc1NC(=O)c1cc(C)n(C)n1 [Roche-Dataset for PDE10A, Compound 391]"
measurement_label = "log10 IC50"
reported_result = -0.71

[[record]]
compound = "CCn1nc(NC(=O)c2c(C(=O)N3CCC3)cnn2C)cc1C1CC1 [Roche-Dataset for PDE10A, Compound 1135]"
measurement_label = "log10 IC50"
reported_result = 0.79

[[record]]
compound = "CCc1cnc(C)n2nc(CCc3nc(N4CCCC4)nn3C)nc12 [Roche-Dataset for PDE10A, Compound 584]"
measurement_label = "log10 IC50"
reported_result = -2.54

[[record]]
compound = "COc1ncccc1C(=O)Nc1cc(-c2ccccn2)nn1C [Roche-Dataset for PDE10A, Compound 921]"
measurement_label = "log10 IC50"
reported_result = 0.99

[[record]]
compound = "O=C(Nc1ccn(C2CCCCC2)n1)c1nc(C2CC2)ccc1Nc1cncnc1 [Roche-Dataset for PDE10A, Compound 632]"
measurement_label = "log10 IC50"
reported_result = -1.72

[[record]]
compound = "Cc1ncc(C)n2nc(CCc3nc(N4CCNC4=O)nn3C)nc12 [Roche-Dataset for PDE10A, Compound 887]"
measurement_label = "log10 IC50"
reported_result = 0.03

[[record]]
compound = "Cn1ncc(-c2ccccc2)c1C(=O)Nc1ccn2nc(-c3ccccc3)nc2c1 [Roche-Dataset for PDE10A, Compound 172]"
measurement_label = "log10 IC50"
reported_result = -0.88

[[record]]
compound = "Cn1nc(-c2cccc(Cl)n2)cc1NC(=O)c1nc(C2CC2)ccc1Nc1cncnc1"
measurement_label = "log10 IC50"
reported_result = -2.56

[[record]]
compound = "O=C(Nc1conc1-c1ccccc1)c1nc(C2CC2)ccc1Nc1cncnc1 [Roche-Dataset for PDE10A, Compound 935]"
measurement_label = "log10 IC50"
reported_result = -2.16

[[record]]
compound = "Cc1c(Cl)cc(Cl)c2nc(CCc3cn4ccccc4n3)nn12 [Roche-Dataset for PDE10A, Compound 663]"
measurement_label = "log10 IC50"
reported_result = -2.03

[[record]]
compound = "Cn1ncc(C(=O)N2CCC2)c1C(=O)Nc1cc(C2CCCCC2)n[nH]1 [Roche-Dataset for PDE10A, Compound 991]"
measurement_label = "log10 IC50"
reported_result = 0.97

[[record]]
compound = "Cc1ncc(C)n2nc(CCc3nc(C(=O)N(C)C)cn3C)nc12 [Roche-Dataset for PDE10A, Compound 609]"
measurement_label = "log10 IC50"
reported_result = 0.20

[[record]]
compound = "O=C(Nc1ccccc1C(=O)C1CCCCC1)c1nc(C2CC2)cnc1Nc1cncnc1 [Roche-Dataset for PDE10A, Compound 667]"
measurement_label = "log10 IC50"
reported_result = -1.89

[[record]]
compound = "Cn1nc(-c2ccccn2)cc1NC(=O)c1cccn(C)c1=O [Roche-Dataset for PDE10A, Compound 710]"
measurement_label = "log10 IC50"
reported_result = 0.64

[[record]]
compound = "CC(C)n1ccc(NC(=O)c2nc(C3CC3)ccc2Nc2cncnc2)n1 [Roche-Dataset for PDE10A, Compound 692]"
measurement_label = "log10 IC50"
reported_result = -1.32

[[record]]
compound = "Cc1c(C(F)(F)F)nc2ccc(C#Cc3nc(N4CCCC4)n(C)n3)nn12"
measurement_label = "log10 IC50"
reported_result = -2.41

[[record]]
compound = "CN(C)c1cc(C(=O)Nc2ccn3nc(-c4ccccc4)nc3c2)cc(Cl)n1 [Roche-Dataset for PDE10A, Compound 167]"
measurement_label = "log10 IC50"
reported_result = -0.88

[[record]]
compound = "Cn1ncc(C(=O)N2CCOCC2)c1C(=O)Nc1cc2nc(N3CCCC3)nn2cn1 [Roche-Dataset for PDE10A, Compound 426]"
measurement_label = "log10 IC50"
reported_result = -2.30

[[record]]
compound = "O=C(Nc1cc(-c2ccccn2)nn1CC(F)(F)F)c1nc(C2CC2)ccc1Nc1cncnc1"
measurement_label = "log10 IC50"
reported_result = -2.60

[[record]]
compound = "Cc1cnc(C)n2nc(CCc3ncnn3C)nc12 [Roche-Dataset for PDE10A, Compound 1130]"
measurement_label = "log10 IC50"
reported_result = 0.38

[[record]]
compound = "Cn1cc(-c2ccccc2)nc1CCNC(=O)c1nc(C2CC2)cnc1Nc1cncnc1 [Roche-Dataset for PDE10A, Compound 36]"
measurement_label = "log10 IC50"
reported_result = -1.80

[[record]]
compound = "O=C(NCCC(=O)N1CCOCC1)c1nc(C2CC2)cnc1Nc1cncnc1 [Roche-Dataset for PDE10A, Compound 591]"
measurement_label = "log10 IC50"
reported_result = 0.18

